- System: TK-10 renal
- assay comment: NCI-60 one-dose screen, 48 h (100 = growth as untreated, 0 = no growth, -100 = all killed)
- protocol conditions: 10 µM unless noted
This is part of a sample that, as a whole, favours compounds with a hit. Of some 83,000 tested, about 20% had one in any assay. Active and inactive are the calls of the source. How the source made its calls: active means growth percent below 10; inactive means the rest.
Listed here are molecules together with their documented growth.

Example results:
CC(C)c1cc(CNc2nc(Nc3cc(C4CC4)[nH]n3)cc(N3CCN(C)CC3)n2)on1	-16.4% (active)
O=c1nc2c(-c3nc4ccccc4s3)n[nH]n2c2sc3c(c12)CCCC3	147% (inactive)
CCCCCCCC(=O)SCC/C=C/[C@@H]1CC(=O)NCc2cccc(n2)C2=N[C@@](C)(CS2)C(=O)N[C@@H](C(C)C)C(=O)N1	12% (inactive)

The record that follows has no growth shown yet.
Sure, the documented growth for CC(N)C(Cc1ccc(Cl)cc1)c1ccc(Cl)cc1 (centres undefined) is 45.5% (inactive)

---

- Test system: NCI-H226 lung
- assay comment: NCI-60 one-dose screen, 48 h
- protocol conditions: 10 µM unless noted
The panel holds about 83,000 compounds, 20% with a hit somewhere; the sample as a whole holds those more often. Active and inactive are the calls of the source. The calls were made as follows: active = growth percent below 10; inactive = the rest.
Hello, when you answer, please use one of the following outcomes: y (active), n (inactive)

Input line: So what was the verdict on CC(=Nc1ccccc1)C1=C(O)C(Cc2ccc(O)cc2)NC1=O (stereo not given) in this test?
Output line: n

Input line: Tell me the assay call for `Cn1cc(-c2ncnc3ccc(-c4cnc(Cl)c(NS(C)(=O)=O)c4)cc23)c2ccccc21` please.
Output line: n

Input line: Called result for `O=C(Nc1cn[nH]c1-c1nc2ccc(CN3CCOCC3)cc2[nH]1)NC1CC1`
Output line: y

Input line: What was the test verdict on `COc1cc2c(cc1OCCCN1Cc3ccc(OCCCCC(=O)N4CCC(CCN5CCCC5)CC4)cc3C1)N=C(N)C21CCCC1` ?
Output line: n

Input line: Hi team, can someone confirm the assay call for `CN(C)CCOC(=O)Nc1nc2ccc(Sc3ccccc3)cc2[nH]1` ?
Output line: n

Input line: Which result was noted for this compound in the test: `CN1CCN(Cc2ccc(NC(=O)c3[nH]ncc3Nc3ncnc4sc5c(c34)CCCC5)cc2)CC1`
Output line: y

Input line: What classification did `CCCNC(=O)c1cn2ncnc(Nc3cc(C(=O)NC4CC4)ccc3C)c2c1C` end up with in this test?
Output line: n

Input line: I would be grateful if you could indicate the recorded call for CCCC(=O)OCC1OC(n2cnc3c(=S)nc(N)[nH]c32)C(OC(=O)CCC)C1OC(=O)CCC (stereo not given) .
Output line: n

Input line: Recorded test call requested for `Nc1c(C(=O)c2ccccc2)sc2nc(-c3cccs3)cc(-c3cccs3)c12`
Output line: n

Input line: How did this test come out for `Cc1cc(O)cc(-c2c(-c3ccnc(-c4cccnc4)c3)cnn2C)c1` ?
Output line: n

Input line: So what was the verdict on `Cc1cc([C@@H](C)Nc2ccccc2C(=O)O)c2nc(N3CCOCC3)cc(=O)n2c1` in this test?
Output line: n

Input line: What call does the record list for `C=CC(=O)Nc1cc2c(Nc3ccc(F)c(Cl)c3)ncnc2cc1OCCCN1CCOCC1` ?
Output line: n

Input line: Recorded call for `CN1CCN(c2ccc(OC(F)(F)F)c(Nc3ncc4c(n3)-c3c(c(C(N)=O)nn3CCO)CC4)c2)CC1` ?
Output line: n

Input line: Write down the call the test reported for this compound. Item: `CSc1nc2ncncc2[nH]1`
Output line: n

Input line: Check the results log: what was the call for `Cn1nccc1Nc1nccc(-c2ccn([C@H](CO)c3ccc(Cl)c(F)c3)c(=O)c2)n1` ?
Output line: n

---

- System: LOX IMVI melanoma
- assay comment: NCI-60 one-dose screen, 48 h (100 = growth as untreated, 0 = no growth, -100 = all killed)
- protocol conditions: 10 µM unless noted
This is part of a sample that, as a whole, favours compounds with a hit. Of some 83,000 tested, about 20% had one in any assay.
Binary call on growth with cut-off 20%: strictly below means 1, and equality or higher means -1.

COc1ccc(COc2cc3oc(=O)c4cc(C(C)O)ccc4c3cc2OC)cc1 (stereo not drawn)	-1
CCCCN1CCCC[C@@H]1C(=O)N[C@H](C(=O)N(C)[C@H](CCc1nc(C(=O)N[C@@H](Cc2ccccc2)C[C@H](C)C(=O)OC)cs1)C(C)C)C(C)C	-1
COc1cc(OC)c(C(=O)/C=C/c2cc3c(cc2OCc2ccccc2)OC(C)(C)CC3)cc1CC=C(C)C	-1

Input line: hey, is growth for `Cc1cccc(Cl)c1NC(=O)c1cnc(Nc2cc(N3CCOCC3)cc(N3CCOCC3)c2)s1` lower than 20% or not?
Output line: 1

Input line: Hello, I'm reviewing records and need to know if growth of `COc1cc(-c2nc(C(=O)NCC(=O)O)nn2-c2ccc(Cl)cc2)cc(OC)c1OC` is below 20%. Could you check?
Output line: -1

Input line: Determine whether this molecule shows growth lower than 20% (ties excluded): `Cc1cc(Nc2cc(N3CCN(C)CC3)nc(/C=C/c3ccccc3)n2)n[nH]1`
Output line: 1

Input line: API: query returns whether the molecule falls strictly under 20% in growth. Query: `Cn1nccc1Nc1nccc(-c2ccn([C@H](CO)c3ccc(Cl)c(F)c3)c(=O)c2)n1`
Output line: -1

Input line: hey, is growth for `O=C(Cn1ccnc1)Nc1ccc(-c2nc3ccccc3s2)cc1` lower than 20% or not?
Output line: -1

Input line: Regarding `CN1CCC(CNc2ccc3ncc(-c4cccc(OC(F)(F)F)c4)n3n2)CC1` , kindly confirm whether its growth is beneath 20%.
Output line: 1

Input line: Does the reported growth of `C/C(=C(/c1ccc(Cl)cc1)c1ccc(OCCN2CCCCCC2)cc1)c1ccccc1` stay below 20%?
Output line: -1

Input line: Please state whether growth is below 20% for `CNC(=O)c1cc(COc2nnc(Nc3ccc(Cl)cc3)c3ccoc23)ccn1`
Output line: 1

Input line: Lab note: confirm whether the reported growth for this molecule is below 20%, equality not counting. molecule: `Clc1ccc2c(NCCCNCc3ccc4c(c3)OCO4)ccnc2c1`
Output line: 1

Input line: For this molecule, is growth lower than 20%? `O=c1[nH]c([C@@H]2CCCN2)nc2c1oc1ccc(Cl)cc12`
Output line: -1

---

- System: NCI-H23 lung
- assay comment: NCI-60 one-dose screen, 48 h
- protocol conditions: 10 µM unless noted
This is part of a sample that, as a whole, favours compounds with a hit. Of some 83,000 tested, about 20% had one in any assay. The source made the active and inactive calls. Rule for the calls: active = growth percent below 10; inactive = the rest.
Respond with a class label; see active, inactive

Below, 2 molecules whose answers are already recorded.
C/C(=C(/c1ccc(Cl)cc1)c1ccc(OCCN2CCCC2)cc1)c1ccccc1	inactive
COC(=O)c1[nH]cnc1/N=N/N(C)CCO	inactive

Input line: Called result for `COc1ccc2c(CCc3ccc(Cl)cc3)c3[n+](cc2c1OC)CCc1cc2c(cc1-3)OCO2`
Output line: inactive

Input line: I would be grateful if you could indicate the recorded call for COC(=O)C1=C(C(=O)OC)C23C=C(C)C1C2=C(C)C1(CC1)[C@@](C)(O)C3=O (some centres undefined) .
Output line: active

---

Each entry below carries its recorded growth.
- Tested on: HT29 colon
- assay comment: NCI-60 one-dose screen, 48 h (100 = growth as untreated, 0 = no growth, -100 = all killed)
- protocol conditions: 10 µM unless noted
- Description: Growth inhibition of the HT29 human tumor cell line is measured as a screen for anti-cancer activity. Cells are grown in 96 well plates and exposed to the test compound for 48 hours. Compounds are tested at a single concentration, which is 10^-5 M for most compounds. The reported endpoint is percent growth (GI% or GIPRCNT), where numbers from 0 - 100% represent growth inhibition, and numbers from -100% - 0 represent cell death. For example, a value of 40 represents 60% growth inhibition. […]
Compounds without any hit were thinned out: in the full panel of roughly 83,000, 20% have a hit.
The reply should be a number in %, with the unit left off.

Consider the worked cases shown below.
CC(C)[C@@H]1CC[C@@H]2[C@@H]1[C@H](OC(=O)/C=C/c1ccccc1)[C@]1(C(C)C)C[C@@H](OC(=O)CO)[C@@]2(C)O1	75
O=C(O)C1(Cc2cccc(Nc3nccs3)n2)CCC(Oc2cccc(Cl)c2F)CC1 (centres undefined)	62.8
C=CCN(/C=C1/C(=O)O[C@H](COC)[C@@]2(C)C1=C(O)C(=O)C1=C2[C@H](OC(C)=O)C[C@]2(C)C(=O)CC[C@@H]12)CC=C	13.7

Now, please, on to the next compound.
Recorded result, `COc1ccc(/C(C)=C(\c2ccc(Cl)cc2)c2ccc(OCCN3CCCCCC3)cc2)cc1` , growth: 8.63

---

- System: K-562 leukemia
- assay comment: NCI-60 one-dose screen, 48 h
- protocol conditions: 10 µM unless noted
About 83,000 compounds went through this panel and 20% of them were active in at least one assay; those are over-represented in the sample as a whole. Activity calls are given as the source filed them. The calls were made as follows: active = growth percent below 10; inactive = the rest.
Give one outcome, nothing more. List: Yes (active), No (inactive)

CN1CC[C@H](c2c(O)cc(O)c3c(=O)cc(-c4ccccc4Cl)oc23)[C@H](O)C1	Yes
COc1cc(C(=O)NNC(=O)c2ccc(NC(=O)CCl)cc2)cc(OC)c1OC	No
Clc1nc(Cl)c2ncn(C/C=C\Cn3cnc4c(Cl)nc(Cl)nc43)c2n1	Yes

Input line: Hello, I am checking results. What call was entered for `CO/C=C/C(=O)c1cc2cnc3c(=N)cc(NC(=O)C(C)C)c([nH]1)c23` ?
Output line: Yes
